Provenance of the data: paper PMC6859963

Known pKd of a selection of molecules
# study system: WDR5 (Homo sapiens)
# Construct: hexahistidine-SUMO (N, cleaved yes); made in house; host or cells: E. coli BL21-CodonPlus-RIL
# protocol text: SPR binding of compounds to captured biotinylated WDR5, 1:1 steady-state affinity fit
# experimental conditions: Table II, fragment core; SPR; mean ± SE (SE not reported where n = 1)
To interpret pKd, take it as minus log10 of a concentration measured in moles per litre.

>  <molecule>
Cc1nc(CO)c[nH]1 [Compound 2, (2-methyl-imidazol-4-yl)methanol]

>  <pKd>
3.59

$$$$
>  <molecule>
Cc1ncc[nH]1 [Compound 6, 2-methyl imidazole]

>  <pKd>
2.68

$$$$

Could you now consider this next molecule?
State its pKd: CCCCc1ncc(CO)[nH]1 [Compound 1, (2-butyl-1H-imidazol-5-yl)methanol]
3.32

* * *

The following molecules are shown together with reported log10 of Kd values.
# study system: WDR5 (Homo sapiens, UniProt P61964)
# Construct: hexahistidine-SUMO (N, cleaved yes); made in house; host or cells: E. coli BL21-CodonPlus-RIL
# protocol text: SPR binding of compounds to captured biotinylated WDR5, 1:1 steady-state affinity fit
# experimental conditions: Table IV, derivatives of 2; SPR; mean ± SE (SE not reported where n = 1)
On a log10 scale: recorded Kd, unit µM.

>  <chemical string>
COC(=O)N(CCCCc1nc(CO)c[nH]1)CC1CCNCC1

>  <log10 of Kd>
1.28

$$$$
>  <chemical string>
NCCCCc1ncc(CO)[nH]1

>  <log10 of Kd>
2.54

$$$$
>  <chemical string>
COC(=O)NCCCCc1ncc(CO)[nH]1.O=C(O)C(F)(F)F

>  <log10 of Kd>
1.46

$$$$
>  <chemical string>
OCc1c[nH]c(CCc2ccccc2)n1

>  <log10 of Kd>
2.48

$$$$

Consider the molecule CC(=O)NCCCCc1ncc(CO)[nH]1 and give its recorded log10 of Kd.
2.30

Fill in reported log10 of Kd for this entry: CCOC(=O)CCc1nc(CO)c[nH]1
2.38

# return recorded log10 of Kd for entry O=C(Cc1ccccc1)NCCCCc1ncc(CO)[nH]1
1.40

Indicate its recorded log10 of Kd; the molecule in question is COC(=O)N(CCCCc1nc(CO)c[nH]1)Cc1ccc(=O)[nH]c1.O=C(O)C(F)(F)F
1.99

Note down log10 of Kd recorded for OCc1c[nH]c(Cc2ccccc2)n1
2.72

* * *

# study system: WDR5 (Homo sapiens)
# Construct: hexahistidine-SUMO (N, cleaved yes); made in house; host or cells: E. coli BL21-CodonPlus-RIL
# protocol text: SPR binding of compounds to captured biotinylated WDR5, 1:1 steady-state affinity fit
# experimental conditions: Table IV, derivatives of 2; SPR; mean ± SE (SE not reported where n = 1)
measure: Kd (µM)
Value expressed in µM; do not type the unit.

Below are worked cases with known answers.
>  <compound>
COC(CCc1nc(CO)c[nH]1)c1ccccc1 (centres unmarked)

>  <unit of measure>
µM

>  <Kd>
22

$$$$
>  <compound>
O=C(NCCCCc1ncc(CO)[nH]1)c1ccccc1

>  <unit of measure>
µM

>  <Kd>
12

$$$$
>  <compound>
COC(=O)N(CCCCc1ncc(CO)[nH]1)Cc1ccccc1

>  <unit of measure>
µM

>  <Kd>
4.5

$$$$

# evaluate next
Return Kd (reported value) for this compound: O=C(NCCCCc1ncc(CO)[nH]1)OCc1ccccc1
11
